- protocolText: Tolerability in Balb/c mice, plasma chemistry markers (Example 12)
- Format: in vivo
- assayConditions: 50 mg/kg subcutaneously twice a week for four weeks
Strand notation (5' to 3'): a small letter for the sugar, then the base; units joined by * are phosphorothioate-linked, units joined directly phosphodiester-linked; [ ] holds rarer units or linkages, { } end groups; capitals alone tell only the bases. k = constrained ethyl (cEt); [5mC] = 5-methylcytosine; d = 2'-deoxy (DNA)
Please assign label 0 whenever BUN is at or above 20 mg/dL, and label 1 whenever it is below.

INSERT INTO assay_data (substance, qualitativelabel) VALUES
  ('958554 (kA*kA*k[5mC]*d[5mC]*dA*dT*dT*dA*dT*dT*dA*d[5mC]*dT*k[5mC]*k[5mC]*kT; antisense) [compound 958554]', 'label 1'),
  ('958725 (kG*kT*k[5mC]*dA*dG*dT*dT*dA*dT*d[5mC]*d[5mC]*dT*dA*kT*k[5mC]*k[5mC]; antisense) [compound 958725]', 'label 0'),
  ('958590 (kA*kG*kG*dT*dA*dT*dA*dA*d[5mC]*dT*dG*dG*dG*k[5mC]*kA*kA) [compound 958590]', 'label 0'),
  ('958540 (kA*kT*kT*d[5mC]*dT*dA*dT*d[5mC]*d[5mC]*dA*dG*dG*dG*kT*k[5mC]*kA; antisense) [compound 958540]', 'label 0'),
  ('958721 (kG*kT*kA*dG*dT*dA*dT*dA*dA*dT*dG*dA*dG*kT*kT*kA; antisense) [compound 958721]', 'label 0'),
  ('958454 (antisense kG*kG*kA*dA*dT*dG*dA*dG*d[5mC]*dT*d[5mC]*dG*dA*kA*k[5mC]*kA) [compound 958454]', 'label 0'),
  ('958498 (kG*kA*kG*dT*dA*dT*dG*dT*dG*dG*d[5mC]*dA*dA*kT*kA*kA; antisense) [compound 958498]', 'label 1'),
  ('958603 (kT*kG*kG*dT*dA*dT*dG*dA*dA*dT*dT*d[5mC]*dT*kG*kA*kA; antisense) [compound 958603]', 'label 0');
